Data origin, for the record: paper PMC6271099

Catalogue of IC50 readings, one per entry.
experiment: Cytotoxicity using Vero cells; conditions: African green monkey, Vero cells
resultType: IC50

1. COc1ncccc1Nc1cc2nc3ccccc3n(-c3ccc(Cl)c(Cl)c3)c-2cc1=NC1CCOCC1 :: > 64 µg/mL
2. COc1ncccc1Nc1cc2nc3ccccc3n(-c3ccc(Cl)c(Cl)c3)c-2cc1=NC1CCC1 :: > 64 µg/mL
3. COc1ncccc1Nc1cc2nc3ccccc3n(-c3ccc(Cl)c(Cl)c3)c-2cc1=NC1CCC(OC)CC1 (stereo not shown) :: > 64 µg/mL
4. COc1ncccc1Nc1cc2nc3ccccc3n(-c3ccc(F)c(F)c3)c-2cc1=NC1CCC(OC)CC1 (stereo not shown) :: > 64 µg/mL

###

# half-life per entry
assay: Preliminary mouse pharmacokinetic study; details: plasma, po, 20 mg/kg
resultType: half-life

1. COc1ncccc1Nc1cc2nc3ccccc3n(-c3ccc(F)c(F)c3)c-2cc1=NC(C)C [Compound 15] :: 13.8 h
2. CC(C)/N=c1\cc2n(-c3ccc(Cl)cc3)c3ccccc3nc-2cc1Nc1ccc(Cl)cc1 [CFZ, Clofazimine, reference compound] :: 27.1 h

###

experiment: Cytotoxicity using Vero cells; conditions: African green monkey, Vero cells
Here the recorded IC50 is given for each entry.
resultType: IC50 (µg/mL)

1) COc1ncccc1Nc1cc2nc3ccccc3n(-c3cccc(Cl)c3)c-2cc1=NC1CC1 [Compound 11] :: 50.9
2) COc1ncccc1Nc1cc2nc3ccccc3n(-c3cccc(Cl)c3)c-2cc1=NC1CCOCC1 [Compound 14] :: 23.4
3) COc1ncccc1Nc1cc2nc3ccccc3n(-c3cccc(F)c3)c-2cc1=NC1CCOCC1 [Compound 9] :: 9.21

###

assay: Preliminary mouse pharmacokinetic study; conditions: plasma, po, 20 mg/kg
Listed here: items and their measured Cmax.
resultType: Cmax (ng/mL)

1) CC(C)/N=c1\cc2n(-c3ccc(Cl)cc3)c3ccccc3nc-2cc1Nc1ccc(Cl)cc1 [CFZ, Clofazimine, reference compound] :: 470
2) COc1ncccc1Nc1cc2nc3ccccc3n(-c3ccc(F)c(F)c3)c-2cc1=NC(C)C [Compound 15] :: 1840

###

Entries below carry reported MIC on M. tuberculosis H37Rv.
resultType: MIC (µg/mL)

1) COc1ncccc1Nc1cc2nc3ccccc3n(-c3ccc(Cl)c(Cl)c3)c-2cc1=NC(C)C [Compound 21] :: 0.099
2) CC(C)/N=c1\cc2n(-c3ccc(Cl)cc3)c3ccccc3nc-2cc1Nc1ccc(Cl)cc1 [CFZ, Clofazimine, reference compound] :: 0.12
3) COc1ncccc1Nc1cc2nc3ccccc3n(-c3cccc(F)c3)c-2cc1=NC(C)C [Compound 8] :: 0.06
4) COc1ncccc1Nc1cc2nc3ccccc3n(-c3ccc(F)c(F)c3)c-2cc1=NC1CCOCC1 [Compound 19] :: 0.067
5) COc1ncccc1Nc1cc2nc3ccccc3n(-c3cccc(Cl)c3)c-2cc1=NC1CCOCC1 [Compound 14] :: 0.025
6) COc1ncccc1Nc1cc2nc3ccccc3n(-c3ccc(Cl)c(Cl)c3)c-2cc1=NC1CCC(OC)CC1 (centres unmarked) [Compound 25] :: 0.059
7) COc1ncccc1Nc1cc2nc3ccccc3n(-c3cccc(Cl)c3)c-2cc1=NC1CCC1 [Compound 12] :: 0.06
8) COc1ncccc1Nc1cc2nc3ccccc3n(-c3cccc(Cl)c3)c-2cc1=NC1CC1 [Compound 11] :: 0.03
9) COc1ncccc1Nc1cc2nc3ccccc3n(-c3ccc(F)c(F)c3)c-2cc1=NC1CCC1 [Compound 17] :: 0.04
10) COc1ncccc1Nc1cc2nc3ccccc3n(-c3ccc(F)cc3)c-2c/c1=N\C(C)C [TBI-1004, reference compound] :: 0.038
11) COc1ncccc1Nc1cc2nc3ccccc3n(-c3cccc(Cl)c3)c-2cc1=NC1CCCCC1 [Compound 13] :: 0.057
12) COc1ncccc1Nc1cc2nc3ccccc3n(-c3ccc(Cl)c(Cl)c3)c-2cc1=NC1CC1 [Compound 22] :: 0.025
13) COc1ncccc1Nc1cc2nc3ccccc3n(-c3ccc(F)c(F)c3)c-2cc1=NC1CC1 [Compound 16] :: 0.014
14) COc1ncccc1Nc1cc2nc3ccccc3n(-c3ccc(F)c(F)c3)c-2cc1=NC(C)C [Compound 15] :: 0.066
15) COc1ncccc1Nc1cc2nc3ccccc3n(-c3ccc(F)c(F)c3)c-2cc1=NC1CCC(OC)CC1 (centres unmarked) [Compound 20] :: 0.056
16) COc1ncccc1Nc1cc2nc3ccccc3n(-c3ccc(Cl)c(Cl)c3)c-2cc1=NC1CCC1 [Compound 23] :: 0.06
17) COc1ncccc1Nc1cc2nc3ccccc3n(-c3ccc(F)c(F)c3)c-2cc1=NC1CCCCC1 [Compound 18] :: 0.03
18) COc1ncccc1Nc1cc2nc3ccccc3n(-c3ccc(Cl)c(Cl)c3)c-2cc1=NC1CCOCC1 [Compound 24] :: 0.08
19) COc1ncccc1Nc1cc2nc3ccccc3n(-c3cccc(Cl)c3)c-2cc1=NC(C)C [Compound 10] :: 0.25
20) COc1ncccc1Nc1cc2nc3ccccc3n(-c3cccc(F)c3)c-2cc1=NC1CCOCC1 [Compound 9] :: 0.061
